# System: HCI-027 (organoid from a triple-negative breast cancer xenograft)
# Test method notes: CTG-3D luminescence at 96 h relative to day-0 seeding control (ratio to day 0); higher = more growth / less cytotoxicity; PDxO 3D drug screen, 96 h, CTG-3D normalised to day-0 seeding control.
# Measurement setup: 0.005 µM; days in culture: 201
Assign CTG-3D luminescence at 96 h to each entry below.
// response body must contain only the number

Query :: Indicate its recorded CTG-3D luminescence at 96 h; the compound in question is C/C=C1\NC(=O)[C@H]2CSSCC/C=C/[C@H](CC(=O)N[C@H](C(C)C)C(=O)N2)OC(=O)[C@H](C(C)C)NC1=O
Result :: 1.35

Query :: Look up CTG-3D luminescence at 96 h of C[C@]12CC[C@@H]3c4ccc(O)cc4C[C@@H](CCCCCCCCC[S+]([O-])CCCC(F)(F)C(F)(F)F)[C@H]3[C@@H]1CC[C@@H]2O (stereo partly drawn) and report it.
Result :: 2.87

Query :: Output measured CTG-3D luminescence at 96 h for this item: O=C(O)C1(C(=O)O)CCC1.[NH2-].[NH2-].[Pt+2]
Result :: 2.09

Query :: For the compound CC(C)n1nc(-c2ccc3oc(N)nc3c2)c2c(N)ncnc21 , give its measured CTG-3D luminescence at 96 h value.
Result :: 2.1

Query :: Give reported CTG-3D luminescence at 96 h value for CCN(c1cc(C#CCN2CCOCC2)cc(C(=O)NCc2c(C)cc(C)[nH]c2=O)c1C)[C@H]1CC[C@H](N(C)CCOC)CC1
Result :: 2.92

Query :: Given the compound Cc1cc(Nc2ncnc3ccc(NC4=NC(C)(C)CO4)cc23)ccc1Oc1ccn2ncnc2c1 , write its reported CTG-3D luminescence at 96 h.
Result :: 2.3

Query :: Given CCN1CCN(Cc2ccc(Nc3ncc(F)c(-c4cc(F)c5nc(C)n(C(C)C)c5c4)n3)nc2)CC1 , respond with its CTG-3D luminescence at 96 h.
Result :: 2.69

Query :: Return value of CTG-3D luminescence at 96 h for input Cc1nc(-c2cn3c(n2)-c2ccc(-c4cnn(C(C)(C)C(N)=O)c4)cc2OCC3)n(C(C)C)n1 , no commentary.
Result :: 2.59

====

# Tested on: HCI-003.E2 (organoid from an ER-positive breast cancer xenograft)
# Test method notes: CTG-3D luminescence at 96 h relative to day-0 seeding control (ratio to day 0); higher = more growth / less cytotoxicity; PDxO 3D drug screen (set 2), 96 h, CTG-3D normalised to day-0 seeding control.
# Measurement setup: 12.5 pM
Give CTG-3D luminescence at 96 h for every item shown.

Query :: Return CTG-3D luminescence at 96 h for the following compound: CS(=O)(=O)CCNCc1ccc(-c2ccc3ncnc(Nc4ccc(OCc5cccc(F)c5)c(Cl)c4)c3c2)o1 [lapatinib]
Result :: 2.53

Query :: Using the record for C[C@@H](Nc1cc(F)cc(F)c1)c1cc(C(=O)N(C)C)cc2c(=O)cc(N3CCOCC3)oc12 [AZD-8186] , state its measured CTG-3D luminescence at 96 h.
Result :: 2.53

Query :: Determine its reported CTG-3D luminescence at 96 h: Cc1c(CN2CCN(C(=O)[C@H](C)O)CC2)sc2c(N3CCOCC3)nc(-c3cnc(N)nc3)nc12 [apitolisib]
Result :: 2.46

Query :: Return value of CTG-3D luminescence at 96 h for input O=C(c1cc(Cc2n[nH]c(=O)c3ccccc23)ccc1F)N1CCN(C(=O)C2CC2)CC1 [olaparib] , no commentary.
Result :: 2.72

Query :: Provide measured CTG-3D luminescence at 96 h value, entry: CC(C)n1nc(-c2ccc3oc(N)nc3c2)c2c(N)ncnc21 [sapanisertib]
Result :: 2.44

Query :: Specify CTG-3D luminescence at 96 h for CO[C@H]1C[C@@H]2CC[C@@H](C)[C@@](O)(O2)C(=O)C(=O)N2CCCC[C@H]2C(=O)O[C@H]([C@H](C)C[C@@H]2CC[C@@H](O)[C@H](OC)C2)CC(=O)[C@H](C)/C=C(\C)[C@@H](O)[C@@H](OC)C(=O)[C@H](C)C[C@H](C)/C=C/C=C/C=C/1C [rapamycin] and stop.
Result :: 1.08
